- Test system: MCF7 breast
- assay.name: NCI-60 one-dose screen, 48 h (100 = growth as untreated, 0 = no growth, -100 = all killed)
- assay.conditions: 10 µM unless noted
This is part of a sample that, as a whole, favours compounds with a hit. Of some 83,000 tested, about 20% had one in any assay.
Reported growth values follow for various molecules
measurement.name: growth (%)

> print(dat)
                                    molecule  study.system  measurement.name  unit.string  recorded.measurement
 1  COC(=O)c1cccc2c1N(C)c1c(cccc1C(=O)OC)CC2   MCF7 breast            growth            %                   108
 2  Cc1cc(C2(c3cc(C)c(O)cc3C)OS(=O)(=O)c3ccccc32)c(C)cc1O   MCF7 breast            growth            %                  78.5
 3  Fc1ccc(Nc2nc(NCCNc3ccnc4cc(Cl)ccc34)nc(N3CCOCC3)n2)cc1   MCF7 breast            growth            %                    55
 4          CC(C)(C)OC(=O)NCCc1ccc(N=C=S)cc1   MCF7 breast            growth            %                    52
 5  C=CCn1cc(-c2nc3ccccc3s2)c2cc(-c3ccc4c5c(cccc35)C(=O)N(CCN3CCNCC3)C4=O)ccc21   MCF7 breast            growth            %                 -65.8
 6  COc1ccc(/C=N\NC(=O)CN2CCN(c3cc4c(cc3F)c(=O)c(C(=O)N/N=C/c3ccc(OC)c(OC)c3)cn4C3CC3)CC2)cc1OC   MCF7 breast            growth            %                  -4.9
 7            CC(=O)Nc1nc(N)nc(NC(C)=O)c1N=O   MCF7 breast            growth            %                   108
 8      C=C[C@@H]1C[C@H](O)Cc2c(C)cc(C)cc2N1   MCF7 breast            growth            %                  93.1
 9                 COc1cc(NCCCCCN)c2ncccc2c1   MCF7 breast            growth            %                  83.2
10  O=C(Nc1cccc(-n2cc(-c3ccncc3)c(-c3ccc(Cl)c(O)c3)n2)c1)Nc1cccc(C(F)(F)F)c1   MCF7 breast            growth            %                  10.3
11   CC(C)(C)N1CCC1C(N)=O (stereo not given)   MCF7 breast            growth            %                   104
12  O=c1cc/c(=N\Nc2ccccc2)c(=O)/c1=N/Nc1ccccc1   MCF7 breast            growth            %                  78.4
13  O=S(=O)(NCCNc1nccc(-c2c(-c3ccc(F)cc3)nc3sccn23)n1)c1ccc(F)cc1   MCF7 breast            growth            %                  30.9
14  O=C1/C(=C/c2ccc(Cl)cc2)CN(Cc2cn(CCNc3ccnc4cc(Cl)ccc34)nn2)C/C1=C\c1ccc(Cl)cc1   MCF7 breast            growth            %                  -100
15  COc1cc(NC(N)=NCCC(C)(C)c2ccc(C(F)(F)F)cc2)ncc1C#N   MCF7 breast            growth            %                 -31.3
16  Nc1nc(-c2ccccc2)c(CCCOc2ccc(NC(=O)CBr)cc2)c(=O)[nH]1   MCF7 breast            growth            %                  78.8
17  COc1ccc(N=Cc2c(O)ccc3c2oc2cc(Cl)c(O)c(Cl)c23)cc1   MCF7 breast            growth            %                  69.6
18  CC(=O)c1cc2c(N)c(C(=O)Nc3cccc4c3OCCO4)sc2nc1C   MCF7 breast            growth            %                  94.9
19  CC(C)(C)n1cc(-c2ccnc(NCCNS(=O)(=O)c3ccc(F)cc3)c2)c(-c2cccc(O)c2)n1   MCF7 breast            growth            %                  28.5
20  FC(F)(F)c1cccc(-c2cn3c(ccc4ccccc43)n2)c1   MCF7 breast            growth            %                    41

Recorded values, source PubChem BioAssay (NCI).
